Exercise: for every item that follows, state its recorded activity (quench increase).
- experiment-summary: F508del CFTR correction, initial screen, CFBE line, single point (AID 720511);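 note: cells transiently co-express mutant CFTR-F508del with the halide-sensitive YFP; corrector assay measuring rescue of mutant channel to the surface after 24 h compound exposure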
- protocol-conditions: CFBE cells, YFP halide quenching, at 7.58 µM, hits give high values, % fluorescence drop versus neutral controls, stimulated with forskolin plus potentiator P3
In all, about 350,000 compounds went through this assay and about 1,300 (0.37%) were called active. The entries come from a sample that favours actives as a whole.
One number for each entry, in %.

>>> readout_value("O=C(NCC[C@H]1CC[C@H](NC(=O)C2CC2)[C@@H](CO)O1)c1ccc(F)cc1")
1.43
>>> readout_value("CCOc1ccc(NC(=O)c2ccc(NC(=O)COC(=O)c3ccc(NC(=O)CC#N)cc3)cc2)cc1")
-1.21
>>> readout_value("Cc1cc2oc(=O)cc(-c3ccccc3)c2c(C)c1-c1ccc(OC(F)(F)F)cc1")
1.07

Return reported activity (quench increase) values for all items listed beneath this line.
1. O=C(c1ccccc1)N1CCN(c2cc(-c3ccccc3)nc3cc(-c4cccc(Cl)c4)nn23)CC1
2. CCCNC(=O)[C@@H]1[C@@H](CO)[C@@H]2Cn3c(ccc(C4=CCCCC4)c3=O)[C@H]1N2CCC
3. O=C(C[C@H]1C=C[C@@H](NC(=O)NC2CCCCC2)[C@@H](CO)O1)NCc1ccc(Cl)cc1
4. COc1cc(OC)cc(C(=O)N[C@H](C(=O)NNC(=O)c2ccc(Br)cc2)C(C)C)c1
5. CN(C)CCN1CCN(c2cc(-c3cccc(Cl)c3)nc3ccnn23)CC1
6. CCOc1ccc(NC(=O)CCNC(=O)c2ccc(Br)cc2)cc1

1. -2.01
2. 0.001
3. 0.0755
4. -1.77
5. -1.38
6. -1.36

---

For each entry below, report its activity (quench increase) value.
- experiment-summary: F508del CFTR correction, initial screen, CFBE line, single point (AID 720511);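 note: cells transiently co-express mutant CFTR-F508del with the halide-sensitive YFP; corrector assay measuring rescue of mutant channel to the surface after 24 h compound exposure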
- protocol-conditions: CFBE cells, YFP halide quenching, at 7.58 µM, hits give high values, % fluorescence drop versus neutral controls, stimulated with forskolin plus potentiator P3
The campaign covered roughly 350,000 compounds. About 1,300 (0.37%) were called active. The entries come from a sample that favours actives as a whole.
One number for each entry, in %.

Reference set (3 entries):
>>> readout_value("Oc1cccc(/C=N/Nc2ccc(Cl)nn2)c1O")
13.3
>>> readout_value("CCCC#Cc1ccc2c(c1)O[C@@H](CN(C)CC1CC1)[C@@H](C)CN([C@H](C)CO)S2(=O)=O")
2.53
>>> readout_value("CCc1cc(-c2nnn(CCC3COCCO3)c2CC)ccc1-c1cn(Cc2ccc3ccccc3c2)nn1 (stereo not given)")
8.99

Provide reported activity (quench increase) for each item, in the same order as listed.
1. COc1ccc2[nH]c3c(C)c4cc[n+](C)cc4c(C)c3c2c1
2. C[C@H](CO)N1C[C@H](C)[C@@H](CN(C)C(=O)NC2CCCCC2)Oc2c(NC(=O)Nc3ccc(F)cc3)cccc2C1=O
3. CCC(=O)c1ccc(OCC(=O)OCC(=O)N2CCc3ccccc3C2)cc1
4. C[C@@H]1CN([C@H](C)CO)C(=O)c2cccc(NC(=O)Nc3ccccc3)c2O[C@@H]1CN(C)C(=O)NC1CCCCC1
5. COc1ccc(NC(=O)C2Cc3c(-c4ccc(Cl)cc4)ccnc3O2)cc1 (stereo not given)
6. O=C(c1[nH]ncc1-c1ccc(Cl)cc1)C1CO1 (stereo not given)
7. Oc1ccc(/C=N/Nc2nc(-c3ccccc3F)nc3ccccc23)c(O)c1
8. CC(=O)Nc1ccc(Nc2c3ccccc3nc3ccccc23)cc1

1. 12.8
2. 3.54
3. 33.2
4. -1.15
5. -2.37
6. 9.82
7. 12.3
8. 10.8

Batch request: activity (quench increase) per item, same order as input.
1. C[C@H]1CN([C@@H](C)CO)C(=O)Cc2cc(NS(=O)(=O)c3cn(C)cn3)ccc2O[C@H]1CN(C)C(=O)Nc1ccc(F)cc1
2. CCC(=O)c1ccc(OCC(=O)OCC(=O)NC2CCCCCC2)cc1
3. O=C(c1ccccn1)N1CC[C@@H]2[C@H]1c1cc(-c3ccccc3)ccc1N[C@@H]2CO
4. C[C@H]1CCCCO[C@@H](CN(C)Cc2ccccc2)[C@@H](C)CN([C@@H](C)CO)C(=O)c2cc(NC(=O)CCCN(C)C)ccc2O1

1: 2.2; 2: 5.07; 3: -1.72; 4: -1.18

Please look at the items below and tell me activity (quench increase) for each one, in order.
1. COCC(=O)N1CC[C@H]2[C@H](CO)Nc3ccc(-c4ccc(C(=O)N(C)C)cc4)cc3[C@H]21
2. CN1C(=O)c2cc(NC(=O)c3ccccc3)ccc2OC[C@@H]2O[C@H](CC(=O)NCC3CC3)CC[C@@H]21
3. COc1ccc(/C=C2/CCCc3ccccc3C2=O)cc1
4. C[C@@H]1CCCCO[C@H](CN(C)Cc2ccc(Cl)c(Cl)c2)[C@@H](C)CN([C@@H](C)CO)C(=O)c2cc(NC(=O)Nc3ccccc3)ccc2O1

1: -0.359; 2: -1.16; 3: 14.3; 4: 0.025

Record activity (quench increase) per entry; entries follow.
1. COc1ccc(/C=C2\N=C3CCCN3C2=O)cc1
2. Cc1noc(C)c1S(=O)(=O)N(C)C[C@H]1Oc2c(NC(=O)c3cnccn3)cccc2C(=O)N([C@H](C)CO)C[C@H]1C
3. C[C@@H]1CN([C@@H](C)CO)C(=O)c2cc(NS(C)(=O)=O)ccc2O[C@@H]1CN(C)C
4. CC(=O)Nc1ccc(S(=O)(=O)N(C)c2nc3ccccc3nc2Cl)cc1
5. N#C[C@@H]1[C@@H](c2ccccc2)[C@H](CO)N1C(=O)c1cc(Cl)cc(Cl)c1
6. COc1ccc2c3c(n(C)c2c1)[C@@H](CO)N(Cc1ccncc1)CC31CN(C(=O)Nc2cccc(F)c2)C1

1. -1.7
2. -0.706
3. 0.661
4. 2.1
5. -2.95
6. -1.9

Take each entry in turn and give its activity (quench increase).
1. CCC(=O)N1C[C@@H](C)[C@@H](OC)CN(C)C(=O)c2ccc(NC(=O)Nc3ccccc3)cc2OC[C@H]1C
2. C[C@H](NC(=O)C[C@@H]1C[C@@H]2c3cc(NS(=O)(=O)c4ccc(F)cc4)ccc3O[C@@H]2[C@@H](CO)O1)c1ccccc1

1. -0.0305
2. 0.793

Please state, for each entry, its recorded activity (quench increase).
1. Cc1cccc(N(C)C(=O)c2cc3c(=O)[nH]c4ccc(C)cc4c3s2)c1
2. Cc1ccc(S(=O)(=O)N[C@@H]2CC[C@H](CCn3cc(-c4cccc(F)c4)nn3)O[C@@H]2CO)cc1
3. C[C@H]1CN([C@@H](C)CO)C(=O)c2cccc(NC(=O)Nc3ccc(C(F)(F)F)cc3)c2O[C@H]1CN(C)C(=O)NC1CCCCC1
4. C/C(=N\Nc1ccc(Cl)nn1)c1ccccc1O

1: 15.5; 2: -2.65; 3: 8.85; 4: -2.03

Hi! Can you tell me activity (quench increase) for each of these compounds?
1. Cc1ccc2[nH]c(=O)c(CC(=O)O)c(-c3ccccc3)c2c1
2. CNC[C@H]1Oc2ccc(NC(=O)Nc3ccc(F)cc3)cc2C(=O)N([C@@H](C)CO)C[C@@H]1C
3. CC(C)NC(=O)N(C)C[C@H]1Oc2ccc(NC(=O)Cn3cnnn3)cc2CC(=O)N([C@H](C)CO)C[C@H]1C
4. C[C@@H]1CN([C@H](C)CO)C(=O)Cc2cc(NC(=O)Nc3ccccc3)ccc2O[C@H]1CN(C)Cc1ccc(Cl)c(Cl)c1

1: -4.85; 2: 2.71; 3: -1.17; 4: -0.242

Data origin: PubChem BioAssay AID720511
